Tested on: SK-OV-3 ovarian
assay details: NCI tumour cell line growth inhibition, 48 h
In this section, each of the molecules is paired with its reported TGI.

# molecule, TGI
records = [
    ("CC(C)/C(Cl)=N/OC(NC(=O)Nc1ccc(Cl)c(Cl)c1)(C(F)(F)F)C(F)(F)F", "32.3 µM"),
    ("O=c1oc2ccccc2cc1-c1ccc([N+](=O)[O-])cc1", "> 100 µM"),
    ("O=[N+]([O-])c1ccc2c(c1)OCCOCCOc1ccc([N+](=O)[O-])cc1OCCOCCO2", "> 100 µM"),
    ("O=C1C(c2ccc(Cl)cc2)=[N+]([O-])c2ccccc21", "> 100 µM"),
    ("COCC1N=C(c2ccc(OC)c(OCc3ccccc3)c2OC)O[C@H]1c1ccccc1 (stereo partly specified)", "96.1 µM"),
    ("CC(=O)CC(=O)CCCC(=O)Nc1ccc(Cl)cc1Cl", "> 100 µM"),
    ("CC1=C(C(=O)Nc2ccc(F)c(Cl)c2)C(c2cccc(O)c2)NC(=S)N1 (stereo unspecified)", "> 50 µM"),
    ("CC1(C)C2CC1C(/C=N\\OCC(=O)O)=CC2=O (stereo unspecified)", "> 100 µM"),
    ("C=C[C@@]1(C)CC(=O)[C@]2(O)[C@@]3(C)[C@@H](OC(C)=O)CCC(C)(C)[C@@H]3[C@H](O)[C@H](OC(C)=O)[C@@]2(C)O1", "> 100 µM"),
    ("CC1=C2C(=CC(C)(CO)C2O)C(=O)C(C)(O)C12CC2 (stereo unspecified)", "0.0424 µM"),
    ("Cc1cc2c(c(C=Nc3ccc(N(C)C)cc3)c1)OC1(C=C2)Oc2ccccc2C(=O)N1C (stereo unspecified)", "66.6 µM"),
    ("OC12c3ccccc3C1CCCCCCCCCC21OCCCO1 (stereo unspecified)", "> 100 µM"),
    ("NS(=O)(=O)c1ccc(NC(=S)/N=C/c2c(O)c3ccccc3[nH]c2=O)cc1", "> 100 µM"),
    ("CC(SC(=S)N1CCCC1)C(=O)Nc1nnc(-c2ccc(Cl)cc2)o1 (stereo unspecified)", "> 100 µM"),
    ("Nc1nc(SCC(=O)O)[nH]c(=O)c1N", "> 100 µM"),
    ("O=NN(CCCl)C(=O)NCc1ccc[n+]([O-])c1", "> 100 µM"),
    ("CC1(c2ccccc2)CC12C(=O)NC(=O)NC2=O (stereo unspecified)", "> 100 µM"),
    ("CCOc1cc(NC(C)=O)ccc1C(=O)NN1C(=O)C(Cl)C1c1ccc(O)c(OC)c1 (stereo unspecified)", "33.6 µM"),
    ("COc1ccc(/C=C(\\C#N)n2nnc3cc(Cl)ccc32)cc1", "> 82.3 µM"),
    ("COc1cc(/C=C2\\CC(C)CC3C2=NN(c2ccccc2)C3c2cc(OC)c(OC)c(OC)c2)cc(OC)c1OC (stereo unspecified)", "41 µM"),
    ("Clc1ccc(N2COOC3(OOC2)C2CC4CC(C2)CC3C4)cc1", "> 100 µM"),
]

* * *

In this section, each of the compounds is paired with its reported TGI.
Test system: OVCAR-8 ovarian
assay details: NCI tumour cell line growth inhibition, 48 h
reported metric: TGI

# compound, value observed
records = [
    ("N#Cc1c2ccccc2c2nnc3cc(C(F)(F)F)ccc3n12", "> 100 µM"),
    ("Cc1ccc([N+](=O)[O-])cc1S(=O)(=O)Nc1ccc(C2=NOC(c3ccccc3)C2)cc1 (configuration not stated)", "> 100 µM"),
    ("COc1c(O)cc2oc3cc(O)c(CC=C(C)C)c(O)c3c(=O)c2c1C/C=C(\\C)CCC=C(C)C", "10.6 µM"),
    ("OC12c3ccccc3C1CCCCCCCCCC21OCCCO1 (configuration not stated)", "> 100 µM"),
    ("COc1cc(/C=C2\\CC(C)CC3C2=NN(c2ccccc2)C3c2cc(OC)c(OC)c(OC)c2)cc(OC)c1OC (configuration not stated)", "> 100 µM"),
    ("CC(=O)C(C(=N)C#N)C(=O)Nc1ccccc1 (configuration not stated)", "> 100 µM"),
    ("CS(=O)(=O)c1ccc(Oc2nccc(-c3c(-c4ccc(F)cc4)ncn3C3CCNCC3)n2)cc1", "> 25 µM"),
]

* * *

Tested on: OVCAR-4 ovarian
assay details: NCI tumour cell line growth inhibition, 48 h; in the data active means GI50 below about 0.43 µM; inactive means the rest
Possible outcomes: 1 (active), 0 (inactive)

# molecule, label value
measured = [
    ("Cc1c(C(=O)CCl)c(=O)n(-c2ccccc2)n1C", 0),
    ("CC1=C2C(=CC(C)(CO)C2O)C(=O)C(C)(O)C12CC2 (stereo not drawn)", 1),
    ("O=C(Nc1ncc([N+](=O)[O-])s1)c1cccc([N+](=O)[O-])c1", 0),
    ("Cc1ccc2c(/C=C/C(=O)c3cc(CN4CCOCC4)c(O)c4nc(C)ccc34)cc(CN3CCOCC3)c(O)c2n1", 0),
    ("COc1ccc(-c2nc3sccn3c2/C=C/C(=O)c2cc(OC)c(OC)c(OC)c2)cc1OC", 0),
    ("Cc1cc(S(=O)(=O)Nc2nnc(-c3ccco3)c(-c3ccco3)n2)c(SCc2ccccc2)cc1Cl", 0),
    ("COc1ccc(/C=C/C(=O)/C=C(/C=C/c2ccc(OC)c(OC)c2)OB(F)F)cc1OC", 0),
    ("O=C(CSc1nc2ccc([N+](=O)[O-])cc2[nH]1)Nc1cccc(C(F)(F)F)c1", 0),
    ("CS(=O)(=O)c1ccc(Oc2nccc(-c3c(-c4ccc(F)cc4)ncn3C3CCNCC3)n2)cc1", 0),
    ("C=C1C(=O)O[C@H]2[C@H]1CC/C(COC(=O)/C=C/c1cccnc1)=C\\CC[C@@]1(C)O[C@@H]21", 0),
    ("CN(C)CCCNC(=O)c1cc(NC(=O)c2cc(NC(=O)CCCN3c4ccccc4C=Cc4ccccc43)cn2C)cn1C", 0),
    ("C=C(CN1CCc2ccccc2C1)c1ccc(/C=C/C(=O)Nc2ccccc2N)cc1", 0),
    ("COc1cccc2c(Nc3ccc(C(=O)NCCNCCO)cc3)cc(-c3ccccc3)nc12", 0),
]

* * *

Tested on: HL-60(TB) leukemia
assay details: NCI tumour cell line growth inhibition, 48 h
In this section, each of the compounds is paired with its reported TGI.
reported metric: TGI (µM)

# compound, reported metric, limit operator, value observed
measured = [
    ("O=C(Nc1ncc([N+](=O)[O-])s1)c1cccc([N+](=O)[O-])c1", "TGI", "=", 8.27),
    ("COc1ccc(-c2nc3sccn3c2/C=C/C(=O)c2cc(OC)c(OC)c(OC)c2)cc1OC", "TGI", "=", 4.98),
    ("CCCCC1=C(C(=O)N2CCOCC2)C2(OCCO2)C1Cl (stereo not given)", "TGI", ">", 100),
    ("CCOC(=O)CCN1C(=O)c2ccc(NC(=O)C(=O)O)cc2S1(=O)=O", "TGI", ">", 100),
    ("COc1cc2c3c(n(CCCO)c(=O)c2cc1OC)-c1cc2c(cc1C3=O)OCO2", "TGI", "=", 10.4),
    ("COC(=O)[C@H](C)[C@H]1CC[C@@](C)([C@H]2CC3C(C)(C)[C@H]4CCC(C)=C[C@H]4C[C@@]3(C)O2)OO1 (stereo not given in full)", "TGI", "=", 5.57),
    ("C[C@@H](Oc1cc(-c2cnn(C3CCNCC3)c2)cnc1N)c1c(Cl)ccc(F)c1Cl", "TGI", "=", 1.9),
    ("CSC1=C(C)S/C(=C\\c2ccc(/C=C3\\SC(C)=C(SC)S3)cc2)S1", "TGI", ">", 100),
    ("Cc1ccc(C)c(NC(=O)CC2C(=O)Nc3ccccc3S2(=O)=O)c1 (stereo not given)", "TGI", ">", 100),
    ("Cc1c(C(=O)CCl)c(=O)n(-c2ccccc2)n1C", "TGI", "=", 13.5),
    ("Cc1cccc(/C=N/NC(=S)NC2CCCCC2)n1", "TGI", ">", 44.5),
    ("O=C1CCCSCCCC(=O)CCCSCCC1", "TGI", ">", 100),
    ("COc1ccc2c(c1)nc1n2C(c2c(F)cccc2F)SC1 (stereo not given)", "TGI", ">", 100),
    ("COC(=O)C1Cc2c(n(C)c3ccccc23)C(c2ccccc2)N1 (stereo not given)", "TGI", "=", 48),
    ("CCN(Cc1ccc(F)cc1F)c1ccc(CO)c(Cl)c1", "TGI", "=", 38.1),
    ("Nc1ccc2c(c1)N(C(=O)CCCC(=O)N1CC(CCl)c3ccc(N)cc31)CC2CCl (stereo not given)", "TGI", "=", 0.907),
    ("O=c1ccc(-c2ccc(-n3ccnc3)cc2)nn1CCO", "TGI", ">", 100),
    ("CN(O)C(=O)c1ccc(OCc2cccc(Cl)c2)cc1", "TGI", "=", 22.2),
    ("COc1ccc(/C=C/C(=O)c2cccc(C(=O)/C=C/c3ccc(OC)c(OC)c3)n2)cc1OC", "TGI", "=", 92.2),
    ("NC(=O)c1csc(C2O[C@@H](COP(=O)(O)OP(=O)(O)OC[C@H]3OC(n4cnc5c(N)ncnc54)[C@H](O)[C@@H]3O)[C@H](O)[C@@H]2O)n1 (stereo not given in full)", "TGI", ">", 100),
    ("Cc1cc(S(=O)(=O)Nc2nnc(-c3ccco3)c(-c3ccco3)n2)c(SCc2ccccc2)cc1Cl", "TGI", "=", 83.1),
    ("OCc1ccc(N(Cc2ccc(F)cc2)C2CCC2)cc1Cl", "TGI", "=", 25.5),
    ("COc1ccc(/C=C\\c2cc(OC)c(OC)c(OC)c2)cc1NC(=O)[C@@H](N)CO", "TGI", "=", 0.758),
    ("CCN(CC)c1ccc2[nH]c3c(C(N)=O)cc(=O)c(=O)c=3oc2c1", "TGI", "=", 5.08),
    ("COP(=N[Si](C)(C)C)(OC)OC", "TGI", ">", 100),
    ("Nc1nc([O-])c([I+]c2ccccc2)c(=O)[nH]1", "TGI", ">", 100),
    ("Cc1ccc2c(/C=C/C(=O)c3cc(CN4CCOCC4)c(O)c4nc(C)ccc34)cc(CN3CCOCC3)c(O)c2n1", "TGI", "=", 0.677),
    ("O=C(c1c(F)c(F)c(F)c(F)c1F)n1c(=O)[nH]c2ccccc21", "TGI", "=", 5.05),
    ("N#C[C@]12CC3(CC[C@H]1CC1(C2)OCCO1)OCCO3", "TGI", ">", 100),
    ("Cn1cc(-c2nc(-c3c[nH]c4ncccc34)cs2)c2cc(Cl)ccc21", "TGI", ">", 100),
]

Values from PubChem BioAssay (NCI)
